Assay: Local concentrations of penicillin in saliva after penicillin G potassium 50 mg tablet (Example IX)
Assay type: in vivo, human
Conditions: human, saliva, topical or ocular; 50 mg tablet, 40 min
endpointLabel: concentration at 40 min

>>> print(df.to_string())
                             compoundstring            endpointlabel                result
0  CC1(C)S[C@@H]2[C@H](NC(=O)Cc3ccccc3)C(=O)N2[C@H]1C(=O)O  concentration at 40 min  30000 to 60000 µg/mL

====

Assay: Local concentrations of penicillin in saliva after topical medication of various doses (Example VII)
Format: in vivo, human
Settings: human, in vivo, topical or ocular, 50 mg topical powder, 120 min, after water at 60 min; studies 1-3
endpointLabel: concentration at 2 h

>>> df
                                   compound         result
0  CC1(C)S[C@@H]2[C@H](NC(=O)Cc3ccccc3)C(=O)N2[C@H]1C(=O)O [penicillin G potassium]  < 15000 ng/mL

====

Test: Local concentrations of penicillin in saliva after topical medication of various doses (Example VII)
Assay type: in vivo, human
Conditions: human, in vivo, topical or ocular, 2 mg topical powder, 60 min; studies 1-3
Description: Five healthy adult volunteers, three men and two women, were selected for this study. The same volunteers were used as the subjects for three studies, and the results are summarized as follows. On the day of study, two hours after breakfast, the volunteers were given a dose of 100 mg, 50 mg, 20 mg, 10 mg and 2 mg of USP grade penicillin G potassium powder respectively. […]
endpointLabel: concentration at 1 h

                             compoundstring         endpointlabel        result
0  CC1(C)S[C@@H]2[C@H](NC(=O)Cc3ccccc3)C(=O)N2[C@H]1C(=O)O  concentration at 1 h  < 3750 µg/mL

====

Assay: Local concentrations of penicillin in saliva after topical medication of various doses (Example VII)
Format: in vivo, human
Settings: human, in vivo, topical or ocular, 100 mg topical powder, 6 min; studies 1-3
endpointLabel: concentration at 0.1 h (µg/mL)

In [3]: df
Out[3]:
                                   compound  recordednumber
0  CC1(C)S[C@@H]2[C@H](NC(=O)Cc3ccccc3)C(=O)N2[C@H]1C(=O)O [penicillin G potassium]          960000

====

Assay: Local concentrations of penicillin in saliva after topical medication of various doses (Example VII)
Format: in vivo, human
Conditions: human, in vivo, topical or ocular, 50 mg topical powder, 20 min; studies 1-3
endpointLabel: concentration at 20 min (µg/mL)

>>> print(df.to_string())
                                   compound  recordednumber
0  CC1(C)S[C@@H]2[C@H](NC(=O)Cc3ccccc3)C(=O)N2[C@H]1C(=O)O [penicillin G potassium]          240000

====

Assay: Local concentrations of penicillin in saliva after topical medication of various doses (Example VII)
Type: in vivo, human
Conditions: human, in vivo, topical or ocular, 100 mg topical powder, 60 min; studies 1-3
endpointLabel: concentration at 1 h (µg/mL)

In [3]: df
Out[3]:
                             compoundstring  recordednumber
0  CC1(C)S[C@@H]2[C@H](NC(=O)Cc3ccccc3)C(=O)N2[C@H]1C(=O)O           15000
